System: mouse neutrophil
Experiment: Cell chemotaxis (Boyden chamber), mouse neutrophil
Assay type: cell-based
Conditions: 1.5 h, neutrophils, migration by IL-1. (5 ng/ml), 37° C. 90 min, n=6, mean±SEM, read-out: IC50 of suppression of migration
measuredMetric: pIC50
Give bare numbers, as −log10 of the molar value.

Output measured pIC50 for this item: C[C@@H](N)[C@H]1CC[C@H](C(=O)Nc2ccncc2)CC1 [Y-27632] 5.08
